Hello, the source for this data is the supplement of paper PMC10567573, in case you need it.

variants and their reported protein stability index
B1: FAM46D (parent)
chain: LELKFVSSLRRQFEFSVDSFQIVL

- Variants of: B1
- TEST DESCRIPTION: protein stability index of a GFP-peptide fusion (GPS, HEK-293T) (PSI 1-6); higher = more stable;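 further: lentivirally expressed fusions sorted by FACS into six bins by GFP to DsRed ratio, PSI derived from sequencing read proportions per bin multiplied by bin number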
- RUN CONDITIONS: c terminus: a fixed tail appended
Lab note: jot down the number only; don't add units.

Below are worked cases with known answers.
INSERT INTO results (variant, reading) VALUES
  ('R11H', 2.97),
  ('Q12A', 4.78),
  ('F20N', 3.48);

Field request: protein stability index | item: Q12T
2.42

Can you look up the measured protein stability index of V6A for me?
2.77

// protein stability index lookup, key: S8D
2.97

Reported protein stability index, variant V23W : ____
3.15

Please give the measured protein stability index for this variant: V23P
2.14

// protein stability index lookup, key: V17P
2.44

Can you look up the measured protein stability index of S7F for me?
4.35

What measured protein stability index goes with L9E ?
1.82

// returns reported protein stability index for input F15D
2.09
